biological target: mPRα (Homo sapiens, UniProt Q86WK9); construct: Full length and truncated mPRγ and mPRα were expressed in wild type cells grown in 2% galactose from the pGREG536 vector; expressed in transfected cells; host or cells: Saccharomyces cerevisiae (BY4742 wild type; also gpa mutants), GAL1-driven plasmids (TPI1 promoter in pJK90); test: cell-based; details: read-out: EC50 for the activation of mPRα
Sequence (Q86WK9 whole entry, the tested form may be a part): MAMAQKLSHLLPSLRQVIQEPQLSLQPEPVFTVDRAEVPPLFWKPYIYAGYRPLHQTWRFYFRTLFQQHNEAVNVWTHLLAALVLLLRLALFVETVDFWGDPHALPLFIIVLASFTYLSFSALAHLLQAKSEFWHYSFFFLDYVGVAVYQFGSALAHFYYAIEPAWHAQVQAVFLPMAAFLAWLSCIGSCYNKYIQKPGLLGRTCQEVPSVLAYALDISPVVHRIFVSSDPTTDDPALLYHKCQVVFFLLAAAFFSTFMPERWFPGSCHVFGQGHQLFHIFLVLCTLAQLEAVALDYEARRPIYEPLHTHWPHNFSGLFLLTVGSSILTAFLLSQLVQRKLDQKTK
Catalogue of EC50 values

- COMPOUND: "C[C@]12CCC(=O)C=C1CC[C@@H]1[C@@H]2CC[C@@]2(C)[C@H]1CC[C@]2(O)C(=O)CO [17α,21-dihydroxyprogesterone]"
  EC50: "~10 nM"
- COMPOUND: "CC(=O)[C@@]1(O)CC[C@H]2[C@@H]3CCC4=CC(=O)CC[C@]4(C)[C@H]3CC[C@@]21C [17α-hydroxyprogesterone]"
  EC50: "~10 nM"
- COMPOUND: "C[C@]12CC[C@H]3[C@@H](CCC4=CC(=O)CC[C@@]43C)[C@@H]1CC[C@@H]2C(=O)CO [21-hydroxyprogesterone]"
  EC50: "~10 nM"
